// provenance: patent US20070142389A1

Biological target: human norepinephrine transporter (Homo sapiens, UniProt P23975)
Construct: expressed in transfected cells; host or cells: HEK-293
Sequence (P23975 whole entry): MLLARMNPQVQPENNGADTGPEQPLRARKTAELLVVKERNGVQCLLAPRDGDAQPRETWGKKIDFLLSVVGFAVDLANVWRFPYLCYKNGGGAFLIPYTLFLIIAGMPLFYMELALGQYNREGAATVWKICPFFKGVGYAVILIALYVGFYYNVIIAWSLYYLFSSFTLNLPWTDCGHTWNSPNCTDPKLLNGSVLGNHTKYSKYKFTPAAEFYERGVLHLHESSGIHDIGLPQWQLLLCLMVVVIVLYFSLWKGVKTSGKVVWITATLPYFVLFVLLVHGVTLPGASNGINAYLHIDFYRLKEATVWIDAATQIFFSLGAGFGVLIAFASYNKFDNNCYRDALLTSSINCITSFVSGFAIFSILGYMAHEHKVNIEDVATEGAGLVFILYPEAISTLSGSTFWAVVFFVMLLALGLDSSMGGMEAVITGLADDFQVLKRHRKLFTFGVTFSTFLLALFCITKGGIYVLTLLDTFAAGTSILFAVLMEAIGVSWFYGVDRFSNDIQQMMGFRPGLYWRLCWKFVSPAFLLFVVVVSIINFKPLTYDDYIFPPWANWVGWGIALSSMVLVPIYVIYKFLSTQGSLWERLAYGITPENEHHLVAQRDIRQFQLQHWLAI
Experiment: hNET Receptor Binding ([125I]-RTI-55 displacement, HEK-293 membranes)
Settings: hNET, HEK-293 cell membranes, 50 pM [125I]-RTI-55, Ki from IC50 by Cheng-Prusoff; read-out: NET Ki
Method: Cell pastes of HEK-293 cells transfected with a human norepinephrine transporter cDNA were prepared. […] The binding assay was set up in Beckman deep-well polypropylene plates with a total volume of 250 μL containing: compound of one of the Examples (10^−5M to 10^−12M), cell membranes, and 50 pM [^125I]-RTI-55 (Perkin Elmer, NEX-272; specific activity 2200 Ci/mmol). […] Scintillation fluid (100 μL) was added to each well, and bound [^125I]-RTI-55 was determined using a Wallac Trilux Beta Plate Counter. […]
Property name: pKi
Scale note: pKi = -log10(concentration in M).

Example results:
Looking up NC(=O)c1ccc(OC[C@@H]2CNCC[C@H]2c2ccccc2)c(Cl)c1 , I see its pKi listed as 8.07

Looking up CCCc1ncccc1OC[C@@H]1CNCC[C@H]1c1ccccc1 , I see its pKi listed as 7.88

Looking up CC(C)c1ccccc1OC[C@@H]1CNCC[C@@H]1c1ccccc1 (relative stereo) , I see its pKi listed as 7.44

Looking up Cn1nc(OC[C@H]2CNCC[C@@H]2c2ccccc2)cc1C(F)(F)F , I see its pKi listed as 6.21

Looking up COc1ncccc1OC[C@H]1CNCC[C@@H]1c1ccccc1 , I see its pKi listed as 5.46

Continuing:
Looking up COCCOc1ncccc1OC[C@H]1CNCC[C@@H]1c1ccccc1 , I see its pKi listed as 5.20

Looking up COCc1ncccc1OC[C@@H]1CNCC[C@H]1c1ccccc1 , I see its pKi listed as 6.99

Looking up CC(C)Cc1ncccc1OC[C@@H]1CNCC[C@H]1c1ccccc1 (racemic) , I see its pKi listed as 7.33

Looking up CCOc1ccccc1OC[C@H]1CNCC[C@@H]1c1ccccc1 , I see its pKi listed as 5.90
